- Assay Notes: high throughput solubility (HT-Solubility)
- Format: physicochemical
- Reported Conditions: pH 6.8, pH 6.8; read-out: HT-Solubility pH 6.8
Parameter threshold = 20 µg/mL. Response is True when solubility meets or exceeds it, else False.

### Prompt Hi team, for CCN(CC)C(=O)C[C@@H](NC(=O)C[C@H](CCCCN)NC(=O)[C@@H](Cc1c[nH]c2ccccc12)NC(=O)C[C@H](Cc1ccccc1)NC(=O)CCc1ccccc1)C(C)C , is the recorded solubility at or above 20 µg/mL?
### Response False

### Prompt Hi team, for CC(=O)N[C@H](CC(=O)N[C@H](Cc1c[nH]c2ccccc12)C(=O)N[C@@H](CCCCN)CC(=O)NC1CCCC1)Cc1ccccc1 , is the recorded solubility at or above 20 µg/mL?
### Response True

### Prompt Hi team, for NCCCC[C@@H](CC(=O)NC1CCCC1)NC(=O)[C@@H](Cc1c[nH]c2ccccc12)NC(=O)C[C@@H](N)Cc1ccccc1 , is the recorded solubility at or above 20 µg/mL?
### Response True

### Prompt Hi team, for CC(=O)N[C@H](CC(=O)N[C@H](Cc1cn(C)c2ccccc12)C(=O)N[C@@H](CCCCN)CC(=O)N[C@@H]1CC(=O)O[C@@H]1C)Cc1ccccc1 , is the recorded solubility at or above 20 µg/mL?
### Response False

### Prompt Hi team, for C[C@H]1OC(=O)C[C@H]1NC(=O)C[C@H](CCCCN)NC(=O)[C@@H](Cc1c[nH]c2ccccc12)NC(=O)C[C@H](Cc1ccccc1)NC(=O)C1CCCCC1 , is the recorded solubility at or above 20 µg/mL?
### Response False

### Prompt Hi team, for CCCCN(C)C(=O)C[C@H](CCCCN)NC(=O)[C@@H](Cc1c[nH]c2ccccc12)NC(=O)C[C@H](Cc1ccccc1)NC(=O)CCC , is the recorded solubility at or above 20 µg/mL?
### Response True

### Prompt Hi team, for CCCCNC(=O)C[C@H](CCCCN)NC(=O)[C@@H](Cc1c[nH]c2ccccc12)NC(=O)C[C@H](Cc1ccccc1)NC(=O)CCC , is the recorded solubility at or above 20 µg/mL?
### Response False

### Prompt Hi team, for C[C@@H](O)[C@@H](CC(N)=O)NC(=O)C[C@H](CCCCN)NC(=O)[C@@H](Cc1c[nH]c2ccccc12)NC(=O)C[C@H](Cc1ccccc1)NC(=O)CCc1ccccc1 , is the recorded solubility at or above 20 µg/mL?
### Response False

### Prompt Hi team, for CCCCCCCCC(=O)N[C@H](CC(=O)N[C@H](Cc1c[nH]c2ccccc12)C(=O)N[C@@H](CCCCN)CC(=O)N[C@@H]1CC(=O)O[C@@H]1C)Cc1ccccc1 , is the recorded solubility at or above 20 µg/mL?
### Response False

### Prompt Hi team, for NCCCC[C@@H](CC(N)=O)NC(=O)[C@@H](Cc1c[nH]c2ccccc12)NC(=O)C[C@@H](N)Cc1ccccc1 [Compound 59, (S)-β^3-HPhe-(R)-Trp-(S)-β^3-HLys-NH2] , is the recorded solubility at or above 20 µg/mL?
### Response True

### Prompt Hi team, for CCCCCN(C)C(=O)C[C@H](CCCCN)NC(=O)[C@@H](Cc1c[nH]c2ccccc12)NC(=O)C[C@H](Cc1ccccc1)NC(C)=O , is the recorded solubility at or above 20 µg/mL?
### Response True

### Prompt Hi team, for CC(=O)N[C@H](CC(=O)N[C@H](Cc1c[nH]c2ccccc12)C(=O)N[C@@H](CCCCN)CC(=O)N[C@H](CC(N)=O)[C@@H](C)O)Cc1ccccc1 , is the recorded solubility at or above 20 µg/mL?
### Response False
